This collection of values is drawn from a melting point compilation (Tetko et al.; mined from patent text by program, amines drawn as free bases though some values may be those of a salt).

metric: melting point

molecule	melting point
Clc1cccc(N2CCN(Cc3ccc4ccccc4c3)CC2)c1	114 to 115 °C
O=C(O)c1ccc(Cn2nnc(-c3cccc(I)c3)n2)cc1	241 to 242 °C

# evaluate next
Provide only the value of recorded melting point for COc1ccccc1[C@@]1(O)[C@H](O)CC(c2ccccc2)(c2ccccc2)[C@@H]2CN(C(=O)Cc3ccc4ccccc4c3)C[C@@H]21 (racemic)
188 to 190 °C

###

Readings of melting point for the listed compounds

compound	metric	recorded_value
O=C1Nc2cccc(-c3cnc4ccccc4c3)c2C12COc1cc3c(cc12)OCCO3 (stereo not drawn)	melting point	221 to 224 °C
C=CCc1c(C)cc(C)c(C(C)O)c1-c1ccc(F)cc1 (stereo not drawn)	melting point	92 °C
O=C(NO)C(CC(=O)N1CCOCC1)NS(=O)(=O)c1ccc(-c2ccc(Cl)cc2)cc1 (stereo not drawn)	melting point	139 to 141 °C
CCOC(=O)c1cn(C2CC2)c2c(Br)c(F)c(F)cc2c1=O	melting point	164 to 168 °C
O=[N+]([O-])c1ccc(Oc2ccc(Oc3ccc(Oc4ccc(Oc5ccc([N+](=O)[O-])cc5)cc4)cc3)cc2)cc1	melting point	142 to 143 °C
CCOC(=O)C1=C(C=O)NC(C(F)(F)F)=C(C(=O)OCC)C1c1cccc2nonc12 (stereo not drawn)	melting point	94 to 95 °C
CN(C)CCCOc1cnc(-c2cccc(CO)c2)nc1	melting point	95 to 97 °C

As a next step, examine the compound that follows.
Using known records, supply melting point for "CN(C)CCn1c2ccc(O)cc2c2c3c(c(-c4ccccc4)cc21)C(=O)NC3=O"
283 to 286 °C

###

Parameter: melting point. Scope: all listed entries.

Record excerpt, results attached:
molecule	metric	recorded_value
COc1cc(Nc2nc3c(s2)CCCC3c2ccccc2)ccc1-c1nc(C)no1 (stereo not drawn)	melting point	228 to 231 °C
OC1(C(c2ccccc2)c2ccccc2)CSC2=NCCCCN21 (stereo not drawn)	melting point	123 to 125 °C

Alright, here's another molecule for you.
Output measured melting point for this item: "CCOC(=O)c1cnn(-c2ccc(Cl)cc2C(F)(F)F)c1C#N"
70 to 72 °C

###

metric: melting point

Provide measured melting point value, entry: COc1ccc2c(c1)CCCC2N(CC(=O)O)C(=O)C(C)CSC(C)=O (stereo not drawn)
158 to 161 °C

Provide measured melting point value, entry: "CCNc1nc(NCC)nc(-c2ccc(-c3ccccc3)cc2)n1"
183 to 184 °C

Provide melting point value for the following compound: "O=C(O)C(=O)CC(=O)c1cccn1Cc1cc(F)ccc1F"
142 to 146 °C

###

# melting point values compiled below

Answer with the recorded melting point for the molecule listed here: CC(=O)OC1CCC2(C)C(=CCC3C2CCC2(C)C(C(C)CO)=CCC32)C1 (stereo unspecified)
170 to 171 °C

Tell me melting point reported for "COc1cc(-c2csc(N(CCC3CCCCC3)C(=O)c3cc4ccccc4n3CC(=O)O)n2)c(OC)cc1C"
198 °C

Name the recorded melting point of the molecule listed here: "Cc1cc2n[nH]c(=O)n2nc1-c1ccc(C(N)=S)cc1"
325 to 329 °C

// Input: "COCN(c1cccc2cc(C(=O)O)n(COC)c12)S(=O)(=O)c1cccs1" . Output its melting point only.
183 to 184 °C

Answer with the recorded melting point for the molecule listed here: CC(C)(C)OC(=O)CC(O)c1ccc(Cl)nc1NC(=O)C(C)(C)C (stereo unspecified)
130 to 132 °C

Provide one value: measured melting point of "ClCc1coc(-c2cc3ccccc3o2)n1"
133 to 134 °C

Tell us which melting point value is on record for "CC(C)N(CCn1cc(C(=O)NCc2ccc(Cl)cc2)c(=O)c2cc(C#CCO)ccc21)C(C)C"
188 to 191 °C

###

metric: melting point

molecule	melting point
O=C(O)Cn1c(=O)c(=O)[nH]c2cc(Cl)c(Cl)cc21	317 to 319 °C
COc1cc(NC(C)=O)c(Cl)cc1C(=O)N=[N+]=[N-]	135 to 140 °C
Clc1ccc2c(c1)OCc1cccnc1C2N1CCNCC1 (stereo unspecified)	162 to 164 °C
COc1ccc(-c2ncc(C(=O)O)s2)cc1OC1CCCC1	170 to 171 °C

Retrieve melting point measured for "COCOc1c(NC(=O)NN)cc(OC)cc1C(C)(C)C" and print it.
132 to 134 °C

Consider the molecule "COc1ccc(-c2ccccc2-c2c(Cl)nc3ncnn3c2Cl)c(Cl)c1" and give its recorded melting point.
163 °C

Could you please provide reported melting point for "COc1cccc(-c2cc(S(=O)(=O)c3ccc(N)cc3)cc(N3CCCC3)n2)c1" ? Thanks!
214 to 215 °C

For the molecule "Cc1ccc(N)cc1Nc1cc(-c2cccnc2)ccn1" , give its reported melting point.
183 to 186 °C

Read off the recorded melting point for "O=c1[nH]nc(-c2ccc(Cl)cc2)o1"
125 to 127 °C

Retrieve melting point measured for "Cc1ccc(C#Cc2ccc(NC(=O)OC(C)(C)C)c(N)c2)cc1" and print it.
175 °C

Hello, please tell me recorded melting point for this one: "CC(=O)c1cccc(NC=O)c1"
100 to 102 °C

Provide one value: measured melting point of "COc1ccc2c(c1)N(CC#N)CCO2"
73 to 74 °C

# return recorded melting point for input "N#Cc1ccccc1N1CCCN(Cc2cc3cc(F)ccc3[nH]2)CC1"
194 to 198 °C

// Input: COC(=O)Nc1ccccc1CS(=O)c1ncc(C(F)(F)F)cc1Cl (stereo unspecified) . Output its melting point only.
160 to 162 °C

Indicate the recorded melting point value for this molecule: O=C(O)C1CSC(c2cc(Cl)ccc2OCCO[N+](=O)[O-])N1 (stereo unspecified)
134 to 135 °C

Item "c1ccc(Cc2ccc3c(c2)nc2n3CCCS2)cc1" : provide melting point
145 to 147 °C

Kindly indicate its recorded melting point. Item: "CC1(C)C=C(n2cc(C#N)c3ccccc32)c2cc(C#N)ccc2O1"
192 to 193 °C

Using the record for CCN1CCC(O)(c2cc(F)cc(F)c2)C1 (single isomer, unassigned; (-)) , state its measured melting point.
111 to 112 °C

Let me know recorded melting point for COc1cc(OC)c([C@@H]2CCN(C)C[C@H]2O)c(OC)c1 (relative stereo) , thanks.
96 to 97 °C

Identify melting point associated with the molecule "CCn1ncnc1COc1nc2c(cnn2-c2ccccc2)c2ccccc12"
147 to 148 °C

Read off the recorded melting point for "CS(=O)(=O)CC(=O)Nc1c(C(=O)c2ccccc2)[nH]c2cc(Cl)ccc12"
217 to 220 °C

Could you please provide reported melting point for "O=C(O)CCNC(=O)C1=C(C(=O)Nc2ccc(Cl)cc2F)CCCC1" ? Thanks!
158 to 159 °C

For the molecule "O=C(O)Cc1nn(CC(=O)Nc2cc(C(F)(F)F)ccc2Br)c(=O)c2ccccc12" , give its reported melting point.
200 to 202 °C

###

# reported melting point; entries follow

Consider the worked cases shown below.
compound	metric	recorded_value
O=Cc1c2c(cn1Cc1ccccc1)OCCO2	melting point	75 °C
O=C(c1ccccc1)c1ccc(O)c(O)c1[N+](=O)[O-]	melting point	153 to 155 °C
c1ccc(SC2CCN(C(c3ccccc3)c3ccccc3)CC2)cc1	melting point	118 to 119 °C
COC(=O)Cc1cccc(CCN(C)CCCC(C#N)(c2ccc(OC)c(OC)c2)C(C)C)c1 (stereo not given)	melting point	77 to 82 °C
CCCCCCCCCCCCCCCCCCOc1ccc(OCCCOc2ccc(OCc3ccccc3)cc2)c(C(=O)OC)c1	melting point	79 to 81 °C

Supply recorded melting point for "CCCCCCCC(=O)CCCCCC(=O)N[C@@H](C)C(=O)OC" here.
61 to 64 °C

Determine its reported melting point: CC(C)(C)OC(=O)N1CCN(c2ccc(OCC3(C)Cn4cc([N+](=O)[O-])nc4O3)cc2)CC1 (stereo not given)
212 to 214 °C

Give reported melting point value for "O=c1c2cn(S(=O)(=O)CCCCl)nc2n(CC2CC2)c(=O)n1CC1CC1"
95 to 97 °C

Output measured melting point for this item: COCC1(C)CCCOc2cc(C#Cc3ccc(C(=O)O)cc3)ccc21 (stereo not given)
112 °C

Report measured melting point; entry is "Cc1cccc(-n2c(Cn3ccnc3)nc3ccccc32)c1"
91 to 93 °C

Identify measured melting point corresponding to O=C1NCNCC1(c1ccccc1)c1ccccn1 (stereo not given)
201 to 203 °C

For the compound "CC(C)(C(=O)O)c1ccc(Br)c([N+](=O)[O-])c1" , give its reported melting point.
167 to 171 °C

Quick one: give measured melting point for O=C(Nc1nccs1)C(CC1CCCC1)c1ccc(-c2cccnc2)cc1 (stereo not given)
48 to 52 °C

Report melting point, nothing else, for this compound: "O=C(NCCCCCCCNC(=O)c1ccc(OC(Cl)(Cl)Cl)cc1)c1ccc(OC(Cl)(Cl)Cl)cc1"
152 to 153 °C

Identify measured melting point corresponding to NC(=O)NC(=O)C(Cl)(Cl)CC1(c2cc(Cl)cc(Cl)c2)CO1 (stereo not given)
186 to 189 °C
